# test.name: Plasma Stability Assay (Example A3), rat plasma
# Type: in vitro ADME
# measurement.conditions: 10 μM, 37° C., prodrug remaining, 240 min
// reported Prodrug (%) for each item listed

| compound | Prodrug (%) |
| --- | --- |
| COc1ccc([C@@]23CCC(OP(=O)(OC(C)C)OC(C)C)=C[C@@H]2N(C)CC3)cc1OC | 65.7% |
| COc1ccc([C@@]23CCC(OP4(=O)OC(C)CC(C)O4)=C[C@@H]2N(C)CC3)cc1OC (stereo partly shown) | 67.32% |
| COc1ccc([C@@]23CCC(OP4(=O)OCCCO4)=C[C@@H]2N(C)CC3)cc1OC | 76.8% |
| COc1ccc([C@@]23CCC(OP(=O)(O)OCOC(=O)C(C)C)=C[C@@H]2N(C)CC3)cc1OC | 0.0% |

----------
# test.name: Metabolic Stability in Human Hepatocytes
# Type: in vitro ADME
# measurement.conditions: cryopreserved human hepatocytes, 5×10^5 viable cells/mL, 37° C.

| molecule | t1/2 [h] |
| --- | --- |
| COc1ccc([C@@]23CCC(OP4(=O)OC(C)CC(C)O4)=C[C@@H]2N(C)CC3)cc1OC (stereo partly shown) [Compound 423] | 0.95 |
| COc1ccc([C@@]23CCC(OP4(=O)OCC(C)(C)CO4)=C[C@@H]2N(C)CC3)cc1OC [Compound 323] | 5.45 |
| COc1ccc([C@@]23CCC(OP4(=O)OCCCO4)=C[C@@H]2N(C)CC3)cc1OC [Compound 422] | 6.1 |
| COc1ccc([C@@]23CCC(OP(=O)(OC(C)C)OC(C)C)=C[C@@H]2N(C)CC3)cc1OC [Compound 321] | 0.383 |

----------
# test.name: Hydrolysis Assay - Condition 2 (DI Water)
# Type: physicochemical
# measurement.conditions: 25° C., 0.5 mM, 24 h
quantity.kind: Conversion (%)

| chemical.structure | measurement |
| --- | --- |
| COc1ccc([C@@]23CCC(OP(=O)(OCc4ccccc4)OCc4ccccc4)=C[C@@H]2N(C)CC3)cc1OC | 59% |
| COc1ccc([C@@]23CCC(OC(=O)N4CCN(C)CC4)=C[C@@H]2N(C)CC3)cc1OC | 0% |
| COc1ccc([C@@]23CCC(OP(=O)(Oc4ccccc4)Oc4ccccc4)=C[C@@H]2N(C)CC3)cc1OC | 0% |
| CCN(C)C(=O)OC1=C[C@@H]2N(C)CC[C@]2(c2ccc(OC)c(OC)c2)CC1 | 0% |
| COc1ccc([C@@]23CCC(OC(=O)N(C)C)=C[C@@H]2N(C)CC3)cc1OC | 0% |
| COc1ccc([C@@]23CCC(OP(=O)(OC(C)C)OC(C)C)=C[C@@H]2N(C)CC3)cc1OC | 0% |
| COc1ccc([C@@]23CCC(OP4(=O)OCC(C)(C)CO4)=C[C@@H]2N(C)CC3)cc1OC | 0% |

----------
# test.name: Plasma Stability Assay (Example A2), mouse plasma
# Format: in vitro ADME
# measurement.conditions: Mouse Plasma, 37° C., prodrug remaining; 0 min
quantity.kind: Prodrug (%)

| chemical.structure | quantity.kind | measurement |
| --- | --- | --- |
| COc1ccc([C@@]23CCC(OC(=O)N4CCN(C)CC4)=C[C@@H]2N(C)CC3)cc1OC | Prodrug (%) | 100% |
| COc1ccc([C@@]23CCC(OP4(=O)OCC(C)(C)CO4)=C[C@@H]2N(C)CC3)cc1OC | Prodrug (%) | 100.0% |
| COc1ccc([C@@]23CCC(OC(=O)N(C)C)=C[C@@H]2N(C)CC3)cc1OC | Prodrug (%) | 100.0% |
| COc1ccc([C@@]23CCC(OP(=O)(OC(C)C)OC(C)C)=C[C@@H]2N(C)CC3)cc1OC | Prodrug (%) | 100% |
| COc1ccc([C@@]23CCC(OP(=O)(Oc4ccccc4)Oc4ccccc4)=C[C@@H]2N(C)CC3)cc1OC | Prodrug (%) | 100% |
| COc1ccc([C@@]23CCC(OP(=O)(O)O)=C[C@@H]2N(C)CC3)cc1OC | Prodrug (%) | 100% |
| CCN(C)C(=O)OC1=C[C@@H]2N(C)CC[C@]2(c2ccc(OC)c(OC)c2)CC1 | Prodrug (%) | 100.0% |

----------
# test.name: Plasma Stability Assay (Example A2), mouse plasma
# Type: in vitro ADME
# measurement.conditions: Mouse Plasma, 37° C., prodrug remaining; 60 min
# Prodrug (%) annotations
quantity.kind: Prodrug (%)

| chemical.structure | measurement.unit | result.comparator | measurement |
| --- | --- | --- | --- |
| COc1ccc([C@@]23CCC(OP4(=O)OCC(C)(C)CO4)=C[C@@H]2N(C)CC3)cc1OC | % | = | 94.1 |
| COc1ccc([C@@]23CCC(OC(=O)N4CCN(C)CC4)=C[C@@H]2N(C)CC3)cc1OC | % | > | 99 |
| COc1ccc([C@@]23CCC(OC(=O)N(C)C)=C[C@@H]2N(C)CC3)cc1OC | % | = | 94.9 |
| COc1ccc([C@@]23CCC(OP(=O)(O)O)=C[C@@H]2N(C)CC3)cc1OC | % | = | 79.0 |

----------
# test.name: in vivo
# Format: in vivo, male C57BL/6 mice
# measurement.conditions: male, C57BL/6, mouse, in vivo; 321; 321 IV 2 mg/kg, mice; 0.08 h; read-out: Plasma concentrations (mean)

| chemical.structure | concentration at 0.08 h / ng/mL |
| --- | --- |
| COc1ccc([C@@]23CCC(OP(=O)(OC(C)C)OC(C)C)=C[C@@H]2N(C)CC3)cc1OC | 305 |

----------
# test.name: Hydrolysis Assay - Condition 1 (SGF)
# Assay type: physicochemical
# measurement.conditions: Condition 1: SGF with pepsin pH 1.5, 37° C., 0.5 mM; 1 min

| chemical.structure | Conversion (%) |
| --- | --- |
| COc1ccc([C@@]23CCC(OP(=O)(Oc4ccccc4)Oc4ccccc4)=C[C@@H]2N(C)CC3)cc1OC | 0 |
| COc1ccc([C@@]23CCC(OP4(=O)OCC(C)(C)CO4)=C[C@@H]2N(C)CC3)cc1OC | 0 |
| COc1ccc([C@@]23CCC(OC(=O)N4CCN(C)CC4)=C[C@@H]2N(C)CC3)cc1OC | 0 |
| COc1ccc([C@@]23CCC(OP(=O)(OC(C)C)OC(C)C)=C[C@@H]2N(C)CC3)cc1OC | 0 |
| COc1ccc([C@@]23CCC(OP(=O)(OCc4ccccc4)OCc4ccccc4)=C[C@@H]2N(C)CC3)cc1OC | 2 |
| CCN(C)C(=O)OC1=C[C@@H]2N(C)CC[C@]2(c2ccc(OC)c(OC)c2)CC1 | 0 |
| COc1ccc([C@@]23CCC(OC(=O)N(C)C)=C[C@@H]2N(C)CC3)cc1OC | 0 |

----------
# test.name: Plasma Stability Assay (Example A2), mouse plasma
# Format: in vitro ADME
# measurement.conditions: Mouse Plasma, 37° C., prodrug remaining; 15 min

| chemical.structure | measurement.unit | result.comparator | Prodrug (%) |
| --- | --- | --- | --- |
| COc1ccc([C@@]23CCC(OP(=O)(O)O)=C[C@@H]2N(C)CC3)cc1OC | % | > | 99 |
| COc1ccc([C@@]23CCC(OC(=O)N(C)C)=C[C@@H]2N(C)CC3)cc1OC | % | = | 97.4 |
| COc1ccc([C@@]23CCC(OP(=O)(OC(C)C)OC(C)C)=C[C@@H]2N(C)CC3)cc1OC | % | = | 77.3 |
| COc1ccc([C@@]23CCC(OP(=O)(Oc4ccccc4)Oc4ccccc4)=C[C@@H]2N(C)CC3)cc1OC | % | = | 58.5 |
| CCN(C)C(=O)OC1=C[C@@H]2N(C)CC[C@]2(c2ccc(OC)c(OC)c2)CC1 | % | > | 99 |
| COc1ccc([C@@]23CCC(OP4(=O)OCC(C)(C)CO4)=C[C@@H]2N(C)CC3)cc1OC | % | > | 99 |
| COc1ccc([C@@]23CCC(OC(=O)N4CCN(C)CC4)=C[C@@H]2N(C)CC3)cc1OC | % | > | 99 |

----------
# test.name: Plasma Stability Assay (Example A3), human plasma
# Format: in vitro ADME
# measurement.conditions: 10 μM, 37° C., prodrug remaining, 10 min

| compound | measurement.unit | result.comparator | Prodrug (%) |
| --- | --- | --- | --- |
| COc1ccc([C@@]23CCC(OP(=O)(O)OCOC(=O)C(C)C)=C[C@@H]2N(C)CC3)cc1OC [Compound 408] | % | = | 94.2 |
| COc1ccc([C@@]23CCC(OP4(=O)OCCCO4)=C[C@@H]2N(C)CC3)cc1OC [Compound 422] | % | = | 89.4 |
| COc1ccc([C@@]23CCC(OP4(=O)OCC(C)(C)CO4)=C[C@@H]2N(C)CC3)cc1OC [Compound 323] | % | = | 86.9 |
| COc1ccc([C@@]23CCC(OP(=O)(O)OCOC(=O)C(C)(C)C)=C[C@@H]2N(C)CC3)cc1OC [Compound 409] | % | > | 99 |
| COc1ccc([C@@]23CCC(OP(=O)(O)OCOC(=O)OC(C)C)=C[C@@H]2N(C)CC3)cc1OC [Compound 410] | % | = | 96.3 |
| COc1ccc([C@@]23CCC(OP4(=O)OC(C)CC(C)O4)=C[C@@H]2N(C)CC3)cc1OC (stereo partly shown) [Compound 423] | % | > | 99 |
| COc1ccc([C@@]23CCC(OP(=O)(OC(C)C)OC(C)C)=C[C@@H]2N(C)CC3)cc1OC [Compound 321] | % | > | 99 |
